Target: T1, in-line fusion protein of human IL-36R extracellular domain and IL1RAcP extracellular domain expressed with … (human; mouse, UniProt Q9HB29 20-337; Q9NPH3 21-359, limits assumed)
T1 construct: not shown: mouse IgG2a Fc
T1 sequence (looked up): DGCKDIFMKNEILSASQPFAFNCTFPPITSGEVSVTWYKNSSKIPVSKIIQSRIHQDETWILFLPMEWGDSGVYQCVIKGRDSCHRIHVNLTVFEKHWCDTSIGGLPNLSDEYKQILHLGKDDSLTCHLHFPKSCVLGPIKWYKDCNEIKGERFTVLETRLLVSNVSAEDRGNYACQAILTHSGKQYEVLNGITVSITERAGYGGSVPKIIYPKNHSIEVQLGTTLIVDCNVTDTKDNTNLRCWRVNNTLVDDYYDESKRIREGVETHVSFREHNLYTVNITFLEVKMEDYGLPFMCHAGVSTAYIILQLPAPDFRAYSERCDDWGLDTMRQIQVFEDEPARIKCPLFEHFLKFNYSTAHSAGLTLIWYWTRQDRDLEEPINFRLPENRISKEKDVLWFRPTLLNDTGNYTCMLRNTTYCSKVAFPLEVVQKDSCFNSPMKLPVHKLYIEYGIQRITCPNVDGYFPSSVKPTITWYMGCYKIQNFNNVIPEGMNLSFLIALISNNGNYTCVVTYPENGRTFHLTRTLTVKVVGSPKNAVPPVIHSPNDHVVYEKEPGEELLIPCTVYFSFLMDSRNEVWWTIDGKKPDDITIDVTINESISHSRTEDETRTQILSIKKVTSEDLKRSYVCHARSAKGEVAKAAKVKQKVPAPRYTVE
Experiment: SPR Biacore 4000, mAb captured on anti-hFc, 37C
For each entry below, report its 100 nM hIL-36R-Trap-mFc Bound (RU) value.

Item: H4H14699P2 (antibody, human IgG4 S228P, kappa, V domains shown, Fully human anti-IL-36R antibody) VH: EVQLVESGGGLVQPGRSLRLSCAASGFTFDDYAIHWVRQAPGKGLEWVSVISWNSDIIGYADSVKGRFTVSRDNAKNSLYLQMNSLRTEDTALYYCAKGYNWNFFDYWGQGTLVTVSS VL: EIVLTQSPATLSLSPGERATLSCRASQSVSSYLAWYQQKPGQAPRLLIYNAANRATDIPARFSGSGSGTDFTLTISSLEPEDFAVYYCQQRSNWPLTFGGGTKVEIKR | 100 nM hIL-36R-Trap-mFc Bound (RU): 229 RU

Item: H4H14728P (antibody, human IgG4 S228P, kappa, V domains shown, Fully human anti-IL-36R antibody) VH: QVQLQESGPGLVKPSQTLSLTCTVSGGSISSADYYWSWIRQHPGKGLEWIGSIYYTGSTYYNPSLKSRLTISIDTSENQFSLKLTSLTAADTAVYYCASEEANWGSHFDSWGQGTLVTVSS VL: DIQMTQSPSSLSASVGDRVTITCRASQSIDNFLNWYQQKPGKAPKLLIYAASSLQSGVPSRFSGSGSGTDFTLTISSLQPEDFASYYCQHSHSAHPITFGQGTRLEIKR | 100 nM hIL-36R-Trap-mFc Bound (RU): 89 RU

Entry source: patent US20200017592A1
